From: patent US20200157194A1

So I've got a bunch of binders here, and I need their hGREM1-His Inhibition IC50, M; W-20-17 cell differentiation assay (alkaline phosphatase) values.
- Subject of test: T1, recombinant human GREM1 (hGREM1-His; C-terminal 10His tagged, R&D, #5190-GR) (human, UniProt O60565 25-184, limits assumed)
- T1 sequence: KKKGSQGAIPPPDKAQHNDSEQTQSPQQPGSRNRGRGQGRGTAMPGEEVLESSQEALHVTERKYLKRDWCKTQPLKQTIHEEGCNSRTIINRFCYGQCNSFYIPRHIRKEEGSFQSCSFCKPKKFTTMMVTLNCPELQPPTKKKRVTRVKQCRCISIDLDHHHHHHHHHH
- Method: cell-based or functional assay
The answer should read as a number with its unit following.

Lab note: measured hGREM1-His Inhibition IC50, M; W-20-17 cell differentiation assay (alkaline phosphatase) of H4H6252P (antibody, human IgG4, V domains shown, H4H prefix = human IgG4 Fc; also called H4H6252S) VH: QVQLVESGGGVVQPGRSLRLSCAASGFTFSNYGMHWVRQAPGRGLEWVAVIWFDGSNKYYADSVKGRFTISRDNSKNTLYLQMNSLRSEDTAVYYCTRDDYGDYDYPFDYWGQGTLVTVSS VL: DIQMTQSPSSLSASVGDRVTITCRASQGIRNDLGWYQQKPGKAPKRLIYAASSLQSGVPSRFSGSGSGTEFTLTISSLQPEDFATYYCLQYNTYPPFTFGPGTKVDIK was 6.1 nM

hGREM1-His Inhibition IC50, M; W-20-17 cell differentiation assay (alkaline phosphatase) measured on H4H6256P (antibody, human IgG4, V domains shown, H4H prefix = human IgG4 Fc) VH: QVQLVESGGGVVQPGRSLRLSCAASGFTFSAYGMHWVRQGPGKGLEWVAVIWYDGSNKYYADSVKGRFTISRDNSKNTLYLQMNRLRAEDTAVYYCARDDYGDSPGFDHWGQGTLVTVSS VL: EIVMTQSPATLSVSPGERATLSCRASQSVSSELAWYQQKPGQAPRLLLYGASTRATGIPARFSGSGSGTEFTLTISSLQSEDFAVYYCQQYSNWPPWTFGQGTKVEIK = 5.7 nM

hGREM1-His Inhibition IC50, M; W-20-17 cell differentiation assay (alkaline phosphatase) in this record for H4H6260P (antibody, human IgG4, V domains shown, H4H prefix = human IgG4 Fc) VH: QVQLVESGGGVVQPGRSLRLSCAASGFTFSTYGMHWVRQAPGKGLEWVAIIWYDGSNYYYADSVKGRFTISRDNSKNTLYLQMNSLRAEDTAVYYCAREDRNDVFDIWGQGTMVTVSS VL: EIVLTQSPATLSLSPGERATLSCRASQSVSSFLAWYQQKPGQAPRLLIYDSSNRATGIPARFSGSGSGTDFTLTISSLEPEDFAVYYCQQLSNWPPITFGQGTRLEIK : 3.3 nM
